System: Staphylococcus sp.
assay protocol: In vitro antibacterial evaluation: minimum inhibitory concentration (MIC), broth dilution method
Format: cell-based
run conditions: broth dilution, 5×10^5 CFU/mL, 18 hours at 35° C.
Measured MIC Coagulase Negative Staphylococcus (GC 4548), listed per entry.
Field format: number, assumed µg/mL, no unit text.

Illustrative cases are given below, each with its answer.
INSERT INTO measurements (compound, unit_of_measure, measured) VALUES
  ('CC(C)=CCCC(C)C1OCC2OC(OC3C(CO)OC(Oc4ccc(CC5NC(=O)C(C(C)c6ccccc6)NC(=O)CNC(=O)C(CO)NC(=O)C(C(O)C6CNC(=N)N6C6OC(CO)C(O)C(O)C6O)NC(=O)C(C(O)C6CNC(=N)N6)NC5=O)cc4)C(O)C3O)C(O)C(O)C2O1 (stereo not shown)', 'µg/mL', 32),
  ('Cc1ccc(Oc2ccc(C3OCC4OC(OC5C(CO)OC(Oc6ccc(CC7NC(=O)C(C(C)c8ccccc8)NC(=O)CNC(=O)C(CO)NC(=O)C(C(O)C8CNC(=N)N8C8OC(CO)C(O)C(O)C8O)NC(=O)C(C(O)C8CNC(=N)N8)NC7=O)cc6)C(O)C5O)C(O)C(O)C4O3)cc2)cc1 (stereo not shown)', 'µg/mL', 0.5),
  ('COc1cc(C2OCC3OC(OC4C(CO)OC(Oc5ccc(CC6NC(=O)C(C(C)c7ccccc7)NC(=O)CNC(=O)C(CO)NC(=O)C(C(O)C7CNC(=N)N7C7OC(CO)C(O)C(O)C7O)NC(=O)C(C(O)C7CNC(=N)N7)NC6=O)cc5)C(O)C4O)C(O)C(O)C3O2)cc([N+](=O)[O-])c1O (stereo not shown)', 'µg/mL', 32);

query: Please give the measured MIC Coagulase Negative Staphylococcus (GC 4548) for this compound: CC(c1ccccc1)C1NC(=O)CNC(=O)C(CO)NC(=O)C(C(O)C2CNC(=N)N2C2OC(CO)C(O)C(O)C2O)NC(=O)C(C(O)C2CNC(=N)N2)NC(=O)C(Cc2ccc(OC3OC(CO)C(OC4OC5COC(c6ccc7c(c6)OCCO7)OC5C(O)C4O)C(O)C3O)cc2)NC1=O (stereo not shown)
result: 1

query: Then CC(C)=CCCC(C)CC1OCC2OC(OC3C(CO)OC(Oc4ccc(CC5NC(=O)C(C(C)c6ccccc6)NC(=O)CNC(=O)C(CO)NC(=O)C(C(O)C6CNC(=N)N6C6OC(CO)C(O)C(O)C6O)NC(=O)C(C(O)C6CNC(=N)N6)NC5=O)cc4)C(O)C3O)C(O)C(O)C2O1 (stereo not shown) ?
result: 8
